Reference source: patent US12390469B2

Test system: HCC827
Assay: Cell viability assay (CellTiter-Glo), HCC827
Type: cell-based, human
Settings: Day 5, CellTiter-Glo
measurement label: IC50
Please provide the amount together with its unit, number first.

compound | IC50
Cc1nc(N2CCC3(CC2)CO[C@@H](C)[C@H]3N)c(CO)nc1-c1cccc(Cl)c1Cl | 690 nM

Then this compound:
Request: Give the reported value of IC50 for this record: N.N.[Cl][Pt][Cl] [Cisplatin]
Result: 4790 nM

---

System: NCI-H358
Experiment: Cell viability assay (CellTiter-Glo), NCI-H358
Type: cell-based, human
Settings: Homo sapiens, 120 h, Day 5, CellTiter-Glo
measurement label: IC50 (nM)
Note: unit nM is implicit; provide only the numeric part.

smiles entry | measurement label | recorded result
C[C@@H]1OCC2(CCN(c3cnc(Sc4cccc(NC(=O)c5c(O)nc6n(c5=O)CCCC6)c4Cl)cn3)CC2)[C@@H]1N | IC50 | 30

Then this compound:
Request: Give the reported value of IC50 for this record: "C[C@@H]1OCC2(CCN(c3cnc(Sc4ccnc(N)c4Cl)c(N)n3)CC2)[C@@H]1N"
Result: 460
